# CONDITION CONTEXT: [M+H]+; instrument: TW; calibrated with polyalanine and drug standards
QUANTITY NAME: collision cross section (N2) (Å²)

[
  {
    "MOLECULE": "O=C(CCc1ccc(O)cc1)c1c(O)cc(O)cc1O",
    "OBSERVED RESULT": 160.7
  },
  {
    "MOLECULE": "CC(CC(C(N)=O)(c1ccccc1)c1ccccc1)N(C)C (stereo not given) [AMINOPENTAMIDE]",
    "OBSERVED RESULT": 169.6
  },
  {
    "MOLECULE": "Cc1ncc([N+](=O)[O-])n1CC(O)CCl (stereo not given)",
    "OBSERVED RESULT": 141.7
  },
  {
    "MOLECULE": "CCCN(CCC)CCc1cccc2c1CC(=O)N2",
    "OBSERVED RESULT": 162.5
  },
  {
    "MOLECULE": "Nc1ncnc2nc[nH]c12",
    "OBSERVED RESULT": 122.4
  },
  {
    "MOLECULE": "O=c1nc[nH]c2nc[nH]c12",
    "OBSERVED RESULT": 123.1
  },
  {
    "MOLECULE": "O=C(O)c1cc(=O)c2cccc(O)c2[nH]1",
    "OBSERVED RESULT": 137.7
  },
  {
    "MOLECULE": "COC(=O)C[C@H]1C(C)(C)C(=O)[C@@H]2CC3=C(CC[C@]4(C)C3=CC(=O)O[C@H]4c3ccoc3)[C@@]1(C)C2=O",
    "OBSERVED RESULT": 206.3
  },
  {
    "MOLECULE": "CC(=O)O[C@H]1C[C@@H](OC(C)=O)C(C)(C)C2C[C@@H](OC(C)=O)[C@@]3(C)C4=CC(=O)O[C@@H](c5ccoc5)[C@]4(C)CCC3[C@]21C (stereo not given in full)",
    "OBSERVED RESULT": 224.9
  },
  {
    "MOLECULE": "C[C@]12CCC(=O)C=C1CC[C@@H]1[C@@H]2C(=O)C[C@@]2(C)[C@H]1CC[C@]2(O)C(=O)CO",
    "OBSERVED RESULT": 184.4
  }
]

These measurements were taken from the C3SDB collision cross section collection.
